- studySystem: human FGFR3 wild type enzyme (cytoplasmic domain) (Homo sapiens)
- Construct: human FGFR3 wild type enzyme (cytoplasmic domain, from Cama Biosciences); purchased Carna Biosciences
- protocolDescription: FGFR3 wild type mobility shift assay (enzymatic assay, Caliper)
- Type: biochemical
- reportedConditions: 75 μM ATP, 50 minutes at 30° C.
pIC50: −log10 of the molar value.
measuredMetric: pIC50

P: CCOc1cc2nc(-c3c(N[C@@H](C)c4ncccn4)c4nn(C)cc4[nH]c3=O)[nH]c2cc1OCC [Compound 53]
Q: COCCOc1cc2[nH]c(-c3c(NC(c4ncccn4)C(C)C)c4nn(C)cc4[nH]c3=O)nc2cc1OC (single isomer, unassigned) [Compound 36]
R: CC[C@H](Nc1c(-c2nc3cnc(N(C)C)cc3[nH]2)c(=O)[nH]c2cn(C)nc12)c1ncccn1 [Compound 22]
S: COc1cc2[nH]c(-c3c(NC(c4ncccn4)C(C)C)c4nn(C)cc4[nH]c3=O)nc2cn1 (single isomer, unassigned) [Compound 18]
**Q:** Put the above entries in order of falling pIC50. List labels; respect the requested ordering.
**A:** P, Q, R, S
(P: 9.26, Q: 8.65, R: 8.44, S: 8.07)

----------
- studySystem: human FGFR3 wild type enzyme (cytoplasmic domain) (Homo sapiens, UniProt P22607)
- Sequence (P22607 397-806 limits assumed): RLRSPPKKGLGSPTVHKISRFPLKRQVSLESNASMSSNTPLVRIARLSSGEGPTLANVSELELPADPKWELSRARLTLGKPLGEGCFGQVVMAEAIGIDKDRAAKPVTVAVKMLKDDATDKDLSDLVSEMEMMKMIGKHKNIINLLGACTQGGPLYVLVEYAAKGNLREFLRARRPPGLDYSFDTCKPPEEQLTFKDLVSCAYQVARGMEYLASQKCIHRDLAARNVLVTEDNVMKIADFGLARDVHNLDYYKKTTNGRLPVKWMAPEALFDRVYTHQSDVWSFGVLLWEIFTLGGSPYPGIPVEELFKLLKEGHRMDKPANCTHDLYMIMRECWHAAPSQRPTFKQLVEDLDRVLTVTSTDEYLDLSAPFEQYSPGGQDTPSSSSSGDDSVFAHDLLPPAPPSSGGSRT
measuredMetric: IC50 (nM)

> print(dat)
                                   molecule  quantityunit  observedvalue
1  CCC(Nc1c(-c2nc3cc(OC)c(OC)cc3[nH]2)c(=O)[nH]c2cn(C)nc12)c1ncccn1 (single isomer, unassigned) [Compound 42]            nM           2.16

a: COCC(Nc1c(-c2nc3ccc(OC)cc3[nH]2)c(=O)[nH]c2cn(C)nc12)c1ncccn1 (single isomer, unassigned) [Compound 12]
b: COc1cc(F)c2nc(-c3c(N[C@@H](C)c4ncccn4)c4nn(C)cc4[nH]c3=O)[nH]c2c1 [Compound 2]
c: CCn1cc2[nH]c(=O)c(-c3nc4c(OC)cc(OC)cc4[nH]3)c(N[C@@H](C)c3ncccn3)c2n1 [Compound 31]
**Q:** Put the entries in order of IC50, starting with the largest number. List labels; respect the requested ordering.
**A:** a, c, b
(a: 18 nM, c: 6.21 nM, b: 2.88 nM)

----------
- studySystem: human FGFR3 V555M enzyme (cytoplasmic domain carrying V555M mutation) (Homo sapiens, UniProt P22607, V555M)
- Construct: cytoplasmic domain carrying V555M mutation, from Carna Biosciences
- Sequence (P22607 397-806 V555M limits assumed): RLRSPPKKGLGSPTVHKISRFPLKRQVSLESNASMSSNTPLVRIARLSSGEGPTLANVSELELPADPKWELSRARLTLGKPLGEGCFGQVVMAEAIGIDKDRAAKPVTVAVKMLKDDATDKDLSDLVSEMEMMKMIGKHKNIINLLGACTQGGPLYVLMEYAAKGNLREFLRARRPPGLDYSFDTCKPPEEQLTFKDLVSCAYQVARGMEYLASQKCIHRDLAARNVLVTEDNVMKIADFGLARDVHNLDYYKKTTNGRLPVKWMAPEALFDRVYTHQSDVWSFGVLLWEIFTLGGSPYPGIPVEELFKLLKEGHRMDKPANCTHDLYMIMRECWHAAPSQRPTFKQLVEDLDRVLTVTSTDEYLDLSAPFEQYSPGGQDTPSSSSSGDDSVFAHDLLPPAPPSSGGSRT
- protocolDescription: FGFR3 V555M mobility shift assay (enzymatic assay, Caliper)
- reportedConditions: 30 μM ATP, 45 minutes at 30° C.
- Procedure: FGFR3 V555M Mobility Shift Assay (Enzymatic Assay) In a final reaction volume of 25 μL, 0.04 ng/μL human FGFR3 V555M enzyme (cytoplasmic domain carrying V555M mutation, from Carna Biosciences) was incubated with 30 μM ATP, 1 μM FL-peptide 30 substrate and 250 nL of testing compound (1% DMSO final) in assay buffer (100 mM HEPES pH 7.4, 10 mM MgCl2, 0.003% Brij35, 1 mM DTT). […]
measuredMetric: IC50 (nM)

Some entries whose results are on file:
> print(dat)
                                   compound  measuredmetric  quantityunit  observedvalue
1  CCOc1cc2nc(-c3c(N[C@@H](C)c4ncccn4)c4nn(CC)cc4[nH]c3=O)[nH]c2cc1OCC [Compound 52]            IC50            nM          0.281
2  CCC(Nc1c(-c2nc3cnc(N(C)C)cc3[nH]2)c(=O)[nH]c2cn(C)nc12)c1ncccn1 (single isomer, unassigned) [Compound 14]            IC50            nM           11.8
3  COc1cc2nc(-c3c(NC(c4ncccn4)C4CC4)c4nn(C)cc4[nH]c3=O)[nH]c2cc1OC (single isomer, unassigned) [Compound 47]            IC50            nM           23.8
4  CCn1cc2[nH]c(=O)c(-c3nc4ccc(OC)cc4[nH]3)c(N[C@@H](C)c3ncccn3)c2n1 [Compound 4]            IC50            nM          0.998
5  COCCOc1cc2[nH]c(-c3c(NC(c4ncccn4)C(C)C)c4nn(C)cc4[nH]c3=O)nc2cc1OC (single isomer, unassigned) [Compound 36]            IC50            nM          0.503
6  COc1cnc2nc(-c3c(NC(c4ncccn4)C(C)C)c4nn(C)cc4[nH]c3=O)[nH]c2c1 (single isomer, unassigned) [Compound 40]            IC50            nM          0.743

P: COCC(Nc1c(-c2nc3ccc(OC)cc3[nH]2)c(=O)[nH]c2cn(C)nc12)c1ncccn1 (single isomer, unassigned) [Compound 13]
Q: CCC(Nc1c(-c2nc3cc(OC)c(OC)cc3[nH]2)c(=O)[nH]c2cn(C)nc12)c1ncccn1 (single isomer, unassigned) [Compound 43]
R: CCOc1cc2[nH]c(-c3c(N[C@@H](C)c4ncccn4)c4nn(C)cc4[nH]c3=O)nc2cc1OC [Compound 7]
S: CCn1cc2[nH]c(=O)c(-c3nc4c(OC)cc(OC)cc4[nH]3)c(N[C@@H](C)c3ncccn3)c2n1 [Compound 31]
T: COc1cc(F)c2nc(-c3c(N[C@@H](C)c4ncccn4)c4nn(C)cc4[nH]c3=O)[nH]c2c1 [Compound 2]
**Q:** Put the entries in order of IC50, starting with the largest number. List labels; respect the requested ordering.
**A:** P, Q, S, T, R

I: CCn1cc2[nH]c(=O)c(-c3nc4cc(OC)c(OC)cc4[nH]3)c(N[C@@H](C)c3ncccn3)c2n1 [Compound 6]
II: CCC(Nc1c(-c2nc3cc(OC)c(OC)cc3[nH]2)c(=O)[nH]c2cn(C)nc12)c1ncccn1 (single isomer, unassigned) [Compound 42]
**Q:** Select the item with the higher value of IC50 from the options I and II listed. State your choice using its label.
**A:** I
